Known Ka of a selection of binders
target: T1, RSV F protein (C-terminal truncated F protein secreted from a recombinant baculovirus) (respiratory syncytial virus (RSV), UniProt P03420 26-524); test: SPR (BIAcore), F protein immobilized by EDC/NHS, Fab injected; calculated from the rate constants
T1 construct: also called F antigen; RSV F antigen
T1 sequence (P03420 26-109, chain 1 of 2): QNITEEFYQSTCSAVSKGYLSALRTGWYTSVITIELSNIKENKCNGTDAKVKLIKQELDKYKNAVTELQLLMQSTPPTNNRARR
T1 sequence (P03420 137-524, chain 2 of 2): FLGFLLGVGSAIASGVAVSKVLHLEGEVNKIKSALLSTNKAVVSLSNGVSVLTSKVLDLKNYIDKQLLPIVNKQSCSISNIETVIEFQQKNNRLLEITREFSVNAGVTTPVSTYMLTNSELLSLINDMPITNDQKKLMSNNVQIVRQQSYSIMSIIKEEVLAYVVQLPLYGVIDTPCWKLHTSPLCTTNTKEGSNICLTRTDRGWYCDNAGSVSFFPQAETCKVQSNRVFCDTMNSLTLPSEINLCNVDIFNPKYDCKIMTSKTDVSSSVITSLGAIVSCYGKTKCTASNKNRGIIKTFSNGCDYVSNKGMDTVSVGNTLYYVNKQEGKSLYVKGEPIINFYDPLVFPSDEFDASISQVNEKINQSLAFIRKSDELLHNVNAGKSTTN
Give the number; M⁻¹ is assumed, so skip it.

For orientation, consider the following solved cases.
>  <binder>
clone 23 (AFFY) (Fab, V domains shown) VH: QVTLRESGPALVKPTQTLTLTCTFSGFSLSTAGMSVGWIRQPPGKALEWLADIWWDDKKDYNPSLKSRLTISKDTSKNQVVLKVTNMDPADTATYYCARSMITNFYFDVWGQGTTVTVSS VL: DIQMTQSPSTLSASVGDRVTITCSASSSVGYMHWYQQKPGKAPKLLIYDTFKLASGVPSRFSGSGSGTEFTLTISSLQPDDFATYYCFQGSYYPFTFGGGTKVEIK

>  <measurement-label>
Ka

>  <unit-symbol>
M⁻¹

>  <numeric-value>
4.03e+11

$$$$
>  <binder>
clone 3 (PFFF) (Fab, V domains shown, also called 3 (n = 3)) VH: QVTLRESGPALVKPTQTLTLTCTFSGFSLSTPGMSVGWIRQPPGKALEWLADIWWDDKKDYNPSLKSRLTISKDTSKNQVVLKVTNMDPADTATYYCARSMITNFYFDVWGQGTTVTVSS VL: DIQMTQSPSTLSASVGDRVTITCSASSSVGYMHWYQQKPGKAPKLLIYDTFKLASGVPSRFSGSGSGTEFTLTISSLQPDDFATYYCFQGSFYPFTFGGGTKVEIK

>  <measurement-label>
Ka

>  <unit-symbol>
M⁻¹

>  <numeric-value>
8.15e+10

$$$$
>  <binder>
clone 22 (AFFF) (Fab, V domains shown, also called 4D2-7) VH: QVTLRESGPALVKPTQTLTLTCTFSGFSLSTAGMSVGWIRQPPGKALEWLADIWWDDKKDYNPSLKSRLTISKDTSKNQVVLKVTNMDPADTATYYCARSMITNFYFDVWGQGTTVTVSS VL: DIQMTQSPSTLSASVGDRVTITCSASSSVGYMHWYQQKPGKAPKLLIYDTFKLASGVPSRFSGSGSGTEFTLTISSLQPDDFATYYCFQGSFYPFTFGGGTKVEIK

>  <measurement-label>
Ka

>  <unit-symbol>
M⁻¹

>  <numeric-value>
3.62e+11

$$$$
>  <binder>
clone 2 (AFFG) (Fab, V domains shown) VH: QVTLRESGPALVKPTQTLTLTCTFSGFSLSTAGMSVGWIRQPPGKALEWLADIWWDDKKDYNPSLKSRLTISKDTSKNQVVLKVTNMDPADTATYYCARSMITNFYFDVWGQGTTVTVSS VL: DIQMTQSPSTLSASVGDRVTITCSASSSVGYMHWYQQKPGKAPKLLIYDTFKLASGVPSRFSGSGSGTEFTLTISSLQPDDFATYYCFQGSGYPFTFGGGTKVEIK

>  <measurement-label>
Ka

>  <unit-symbol>
M⁻¹

>  <numeric-value>
7.31e+10

$$$$

Kindly consider the entry below.
Task: Complete the entry with Ka for clone 1 (AFSF) (Fab, V domains shown) VH: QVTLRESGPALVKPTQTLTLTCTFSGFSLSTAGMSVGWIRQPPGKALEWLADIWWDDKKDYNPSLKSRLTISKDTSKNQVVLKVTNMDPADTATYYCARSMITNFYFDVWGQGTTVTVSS VL: DIQMTQSPSTLSASVGDRVTITCSASSSVGYMHWYQQKPGKAPKLLIYDTSKLASGVPSRFSGSGSGTEFTLTISSLQPDDFATYYCFQGSFYPFTFGGGTKVEIK
Result: 6.98e+10
